System: LPS-induced IL-6 secretion in U 937 cells
Test: Modulation of proinflammatory cytokine production in U 937 cells (transrepression): IL-6
Format: cell-based
Settings: Homo sapiens; 1 μM test compound; U 937 cells stimulated with 5 μg/mL LPS; ELISA
readout kind: inhibition at 1 µM
State the result as a value with its unit after it.

Asked: Need inhibition at 1 µM of Cc1c(NS(C)(=O)=O)cccc1N(Cc1ccccc1)Cc1ccc(Oc2cccc(OCCc3cccnc3)c2)cc1 , thanks.
Given back: 74%

Asked: Need inhibition at 1 µM of Cc1c(NS(C)(=O)=O)cccc1N(Cc1ccc(C#N)cc1)Cc1ccc(Oc2cc(C#N)cc(OCCc3cccnc3)c2)cc1 , thanks.
Given back: 94.9%

Asked: Need inhibition at 1 µM of Cc1c(NS(C)(=O)=O)cccc1N(Cc1ccc(C#N)cc1)Cc1ccc(Oc2cc(OCCc3cccnc3)cc(C(N)=O)c2)cc1 , thanks.
Given back: 100%

Asked: Need inhibition at 1 µM of Cc1c(NS(C)(=O)=O)cccc1N(Cc1ccc(Oc2cc(OCCc3cccnc3)cc(C(N)=O)c2)cc1)Cc1ccc(C#N)c(F)c1 , thanks.
Given back: 95.1%

Asked: Need inhibition at 1 µM of Cc1c(NS(C)(=O)=O)cccc1N(Cc1ccc(Oc2cccc(OCC3CCOC3)c2)cc1)Cc1cccc(C#N)c1 (stereo not shown) , thanks.
Given back: 76%

Asked: Need inhibition at 1 µM of Cc1c(NS(C)(=O)=O)cccc1N(Cc1ccc(C#N)cc1)Cc1ccc(Oc2cccc(OCCc3cccs3)c2)cc1 , thanks.
Given back: 54%

Asked: Need inhibition at 1 µM of Cc1c(NS(C)(=O)=O)cccc1N(Cc1ccc(Oc2cccc(OCCc3cccnc3)c2)cc1)Cc1cccc(C#N)c1 , thanks.
Given back: 90.8%

----------
Tested on: LPS-induced TNFα secretion in U 937 cells
Assay: Modulation of proinflammatory cytokine production in U 937 cells (transrepression): TNFα
Assay type: cell-based
Details: Homo sapiens; 1 μM test compound; U 937 cells stimulated with 5 μg/mL LPS; inhibition by Dexamethasone at 10 nM considered as 100%; read-out: % TNF α Inhibition
Class yes: inhibition at 1 µM at least 80%. Class no: inhibition at 1 µM below 80%.

Asked: Is it the case that CCS(=O)(=O)Nc1cccc(N(Cc2ccc(C#N)cc2)Cc2ccc(Oc3cccc(OCc4ccoc4)c3)cc2)c1C has inhibition at 1 µM reaching or exceeding 80%?
Given back: yes

Asked: Is it the case that CCS(=O)(=O)Nc1cccc(N(Cc2ccc(Oc3cc(CO)cc(OCC4CCOC4)c3)cc2)Cc2cccc(C#N)c2)c1C (centres unmarked) has inhibition at 1 µM reaching or exceeding 80%?
Given back: yes

Asked: Is it the case that Cc1c(NS(C)(=O)=O)cccc1N(Cc1ccc(Oc2cc(OCCc3cccnc3)cc(C(N)=O)c2)cc1)Cc1ccc(C#N)c(F)c1 has inhibition at 1 µM reaching or exceeding 80%?
Given back: yes

Asked: Is it the case that Cc1c(NS(C)(=O)=O)cccc1N(Cc1ccc(Oc2cccc(OCCc3cccnc3)c2)cc1)Cc1cccc(C#N)c1 has inhibition at 1 µM reaching or exceeding 80%?
Given back: yes

Asked: Is it the case that CCS(=O)(=O)Nc1cccc(N(Cc2ccc(Oc3cccc(OCC4CCOC4)c3)cc2)Cc2cccc(C#N)c2)c1C (centres unmarked) has inhibition at 1 µM reaching or exceeding 80%?
Given back: yes

Asked: Is it the case that Cc1c(NS(C)(=O)=O)cccc1N(Cc1ccccc1)Cc1ccc(Oc2cccc(OCCc3cccnc3)c2)cc1 has inhibition at 1 µM reaching or exceeding 80%?
Given back: yes

Asked: Is it the case that Cc1c(NS(C)(=O)=O)cccc1N(Cc1ccc(C#N)cc1)Cc1ccc(Oc2cc(CO)cc(OCc3cccnc3)c2)cc1 has inhibition at 1 µM reaching or exceeding 80%?
Given back: yes

Asked: Is it the case that Cc1c(NS(C)(=O)=O)cccc1N(Cc1ccc(C#N)cc1)Cc1ccc(Oc2cccc(OCCc3cccs3)c2)cc1 has inhibition at 1 µM reaching or exceeding 80%?
Given back: yes

Asked: Is it the case that Cc1c(NS(C)(=O)=O)cccc1N(Cc1ccc(C#N)cc1)Cc1ccc(Oc2cc(C#N)cc(OCC3CCOC3)c2)cc1 (centres unmarked) has inhibition at 1 µM reaching or exceeding 80%?
Given back: no

Asked: Is it the case that Cc1c(NS(C)(=O)=O)cccc1N(Cc1ccc(C#N)cc1)Cc1ccc(Oc2cc(CO)cc(OCCc3cccnc3)c2)cc1 has inhibition at 1 µM reaching or exceeding 80%?
Given back: yes

Asked: Is it the case that Cc1c(NS(C)(=O)=O)cccc1N(Cc1ccc(C#N)cc1)Cc1ccc(Oc2cccc(OCC3CCOC3)c2)cc1 (centres unmarked) has inhibition at 1 µM reaching or exceeding 80%?
Given back: no

Asked: Is it the case that CNC(=O)c1cc(OCCc2cccnc2)cc(Oc2ccc(CN(Cc3ccc(C#N)cc3)c3cccc(NS(C)(=O)=O)c3C)cc2)c1 has inhibition at 1 µM reaching or exceeding 80%?
Given back: yes

Asked: Is it the case that Cc1c(NS(C)(=O)=O)cccc1N(Cc1ccc(Oc2cc(CO)cc(OCC3CCOC3)c2)cc1)Cc1cccc(C#N)c1 (centres unmarked) has inhibition at 1 µM reaching or exceeding 80%?
Given back: yes

Asked: Is it the case that Cc1c(NS(C)(=O)=O)cccc1N(Cc1ccc(Oc2cccc(OCC3CCOC3)c2)cc1)Cc1cccc(C#N)c1 (centres unmarked) has inhibition at 1 µM reaching or exceeding 80%?
Given back: no
